Target: human TLR7 (Homo sapiens (Human), UniProt Q9NYK1)
Sequence (Q9NYK1 27-1049): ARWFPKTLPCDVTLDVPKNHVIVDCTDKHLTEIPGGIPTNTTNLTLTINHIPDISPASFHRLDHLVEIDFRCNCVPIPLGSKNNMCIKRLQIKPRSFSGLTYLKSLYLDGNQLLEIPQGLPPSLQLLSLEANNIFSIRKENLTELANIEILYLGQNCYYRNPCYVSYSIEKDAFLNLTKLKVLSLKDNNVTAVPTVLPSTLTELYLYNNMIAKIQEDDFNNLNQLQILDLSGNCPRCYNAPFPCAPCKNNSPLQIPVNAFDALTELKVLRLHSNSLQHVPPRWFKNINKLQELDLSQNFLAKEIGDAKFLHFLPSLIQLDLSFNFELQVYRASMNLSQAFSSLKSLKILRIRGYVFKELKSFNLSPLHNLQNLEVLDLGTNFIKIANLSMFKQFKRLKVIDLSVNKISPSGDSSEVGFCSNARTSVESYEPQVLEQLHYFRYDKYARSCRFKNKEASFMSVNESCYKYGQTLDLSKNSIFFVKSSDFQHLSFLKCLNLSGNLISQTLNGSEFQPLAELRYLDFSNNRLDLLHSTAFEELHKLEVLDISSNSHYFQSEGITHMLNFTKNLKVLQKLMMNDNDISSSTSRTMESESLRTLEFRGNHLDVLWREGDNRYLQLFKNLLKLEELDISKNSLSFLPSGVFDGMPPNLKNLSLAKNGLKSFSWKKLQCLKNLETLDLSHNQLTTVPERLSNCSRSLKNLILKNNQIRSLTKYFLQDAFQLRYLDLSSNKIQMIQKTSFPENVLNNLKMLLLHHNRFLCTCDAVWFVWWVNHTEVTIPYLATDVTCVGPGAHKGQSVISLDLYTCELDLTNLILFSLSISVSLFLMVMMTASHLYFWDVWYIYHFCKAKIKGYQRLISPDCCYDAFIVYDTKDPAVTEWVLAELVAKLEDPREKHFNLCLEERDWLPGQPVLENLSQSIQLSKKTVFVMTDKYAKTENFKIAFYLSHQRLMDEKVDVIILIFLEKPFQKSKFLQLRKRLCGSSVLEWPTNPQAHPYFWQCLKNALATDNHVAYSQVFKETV
Experiment: Test for evaluating the inhibition of the activation of human TLR7 (SEAP reporter, TLR7/NF-κB/SEAPorter HEK293 cell)
Conditions: R-848 200 nmol/L, SEAP reporter
pIC50: −log10 of the molar value.
Binary call on pIC50: 1.0 from 7 upward, 0.0 beneath that.

Query: Could you please find out whether COc1nc(C)c2nc(-c3cncc(F)c3)n(Cc3ccc(C4CCN(C)C4)cc3F)c2n1 (stereo not shown) has pIC50 that meets 7 or exceeds it?
Result: 1.0

Query: Confirm if pIC50 reported for the compound COc1nc(C)c2nc(-c3cncc(F)c3)n(Cc3ccc(CN4C[C@@H]5C[C@H]4CN5C)cc3F)c2n1 is 7 or above.
Result: 1.0

Query: Check if pIC50 >= 7 (inclusive). Item: CCOc1nc(C)c2nc(-c3cncc(F)c3)n(Cc3cnn(CCN4CCN(C)CC4)c3)c2n1
Result: 1.0

Query: Check if pIC50 >= 7 (inclusive). Item: CCCCOc1nc(N)c2nc(-c3cncc(C)c3)n(Cc3ccccc3)c2n1
Result: 0.0

Query: Check if pIC50 >= 7 (inclusive). Item: CCOc1nc(N)c2nc(-c3cncc(F)c3)n(Cc3ccc(CN(C)CC(F)F)cc3)c2n1
Result: 0.0

Query: Record CCOc1nc(N)c2nc(-c3cncc(F)c3)n(Cc3ccc(C(=O)NCCN(C)C)cc3)c2n1 ; criterion: pIC50 no lower than 7. Met?
Result: 0.0

Query: Please indicate if the recorded pIC50 for CN(C)Cc1ccc(Cn2c(-c3cncc(F)c3)nc3c(N)nc(Cl)nc32)cc1 meets or exceeds 7.
Result: 0.0

Query: Check if pIC50 >= 7 (inclusive). Item: CCCCOc1nc(N)c2nc(-c3cncc(COC)c3)n(Cc3ccccc3)c2n1 [Example 29]
Result: 0.0

Query: Given CCOc1nc(N)c2nc(-c3cncc(F)c3)n(Cc3ccc(OCCN(C)C)cn3)c2n1 , state whether its pIC50 is at least 7.
Result: 0.0

Query: In plain terms: is recorded pIC50 at least 7 for CCOc1nc(C)c2nc(-c3cncc(F)c3)n(Cc3cnn(CCN(C)C)c3)c2n1 ?
Result: 0.0

Query: Please check the record COc1nc(C)c2nc(-c3cncc(F)c3)n(Cc3ccc(C4CCNCC4)cc3F)c2n1 and state if its pIC50 is at or above 7.
Result: 1.0

Query: Confirm if pIC50 reported for the compound COc1nc(C)c2nc(-c3cncc(F)c3)n(Cc3ccc(OC4CN(C)C4)cc3F)c2n1 is 7 or above.
Result: 1.0

Query: Please check the record CCOc1nc(C)c2nc(-c3cncc(F)c3)n(Cc3cnn(CCCN(C)C)c3)c2n1 and state if its pIC50 is at or above 7.
Result: 0.0

Query: Evaluate COc1nc(C)c2nc(-c3cnccc3C)n(Cc3ccc(C4CN5CCC4CC5)cc3F)c2n1 (stereo not shown) : pIC50 at minimum 7?
Result: 1.0

Query: Item CCOc1nc(C)c2nc(-c3cncc(F)c3)n(Cc3ccc(C4CN5CCC4CC5)cc3OC)c2n1 (stereo not shown) with pIC50 of 7 or above?
Result: 1.0

* * *

Target: human TLR7 (Homo sapiens (Human))
Assay: Test for evaluating the inhibition of the activation of human TLR7 (SEAP reporter, TLR7/NF-κB/SEAPorter HEK293 cell)
Conditions: R-848 200 nmol/L, SEAP reporter
recordedMetric: pIC50
Reminder that pIC50 means the negative base-10 logarithm of the concentration expressed in mol/L.

Query: Quick one: give measured pIC50 for CCCN1C[C@@H]2C[C@H]1CN2Cc1ccc(Cn2c(-c3cncc(F)c3)nc3c(C)nc(OC)nc32)cc1 [Example 133]
Result: 7.89

Query: Query pIC50 for COc1nc(N)c2nc(-c3cncc(F)c3)n(Cc3ccc(CN(C)C)cc3)c2n1 [Example 150]
Result: 6.30

Query: Note pIC50 for the compound shown: COc1nc(C)c2nc(-c3ccc4ncccc4c3)n(Cc3ccc(OC4CN5CCC4CC5)cc3F)c2n1 (stereo not drawn) [Example 440]
Result: 7.08
